# target under test: UniProtKB P35414
# Sequence (P35414 whole entry): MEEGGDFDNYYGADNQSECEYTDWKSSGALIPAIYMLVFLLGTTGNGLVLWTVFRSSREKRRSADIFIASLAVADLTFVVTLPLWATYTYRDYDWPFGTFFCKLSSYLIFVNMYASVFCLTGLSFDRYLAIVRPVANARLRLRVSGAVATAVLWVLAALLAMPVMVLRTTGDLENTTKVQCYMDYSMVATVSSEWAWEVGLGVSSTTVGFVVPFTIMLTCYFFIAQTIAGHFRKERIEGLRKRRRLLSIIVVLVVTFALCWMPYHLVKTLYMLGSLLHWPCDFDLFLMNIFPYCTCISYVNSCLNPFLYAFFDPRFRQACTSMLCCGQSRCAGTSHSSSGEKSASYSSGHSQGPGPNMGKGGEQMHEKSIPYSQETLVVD
pEC50: −log10 of the molar value.
reported metric: pEC50

Recorded pEC50 for `COc1cccc(OC)c1-c1cc(C(=O)N[C@@H](CCc2ccccc2)CC(=O)O)nn1CC(C)C` on UniProtKB P35414 was < 5.00
